Cited source for all entries: ChEMBL document CHEMBL4339202

subject-of-test: hERG (KCNH2) (Homo sapiens)
Sequence (Q12809 whole entry): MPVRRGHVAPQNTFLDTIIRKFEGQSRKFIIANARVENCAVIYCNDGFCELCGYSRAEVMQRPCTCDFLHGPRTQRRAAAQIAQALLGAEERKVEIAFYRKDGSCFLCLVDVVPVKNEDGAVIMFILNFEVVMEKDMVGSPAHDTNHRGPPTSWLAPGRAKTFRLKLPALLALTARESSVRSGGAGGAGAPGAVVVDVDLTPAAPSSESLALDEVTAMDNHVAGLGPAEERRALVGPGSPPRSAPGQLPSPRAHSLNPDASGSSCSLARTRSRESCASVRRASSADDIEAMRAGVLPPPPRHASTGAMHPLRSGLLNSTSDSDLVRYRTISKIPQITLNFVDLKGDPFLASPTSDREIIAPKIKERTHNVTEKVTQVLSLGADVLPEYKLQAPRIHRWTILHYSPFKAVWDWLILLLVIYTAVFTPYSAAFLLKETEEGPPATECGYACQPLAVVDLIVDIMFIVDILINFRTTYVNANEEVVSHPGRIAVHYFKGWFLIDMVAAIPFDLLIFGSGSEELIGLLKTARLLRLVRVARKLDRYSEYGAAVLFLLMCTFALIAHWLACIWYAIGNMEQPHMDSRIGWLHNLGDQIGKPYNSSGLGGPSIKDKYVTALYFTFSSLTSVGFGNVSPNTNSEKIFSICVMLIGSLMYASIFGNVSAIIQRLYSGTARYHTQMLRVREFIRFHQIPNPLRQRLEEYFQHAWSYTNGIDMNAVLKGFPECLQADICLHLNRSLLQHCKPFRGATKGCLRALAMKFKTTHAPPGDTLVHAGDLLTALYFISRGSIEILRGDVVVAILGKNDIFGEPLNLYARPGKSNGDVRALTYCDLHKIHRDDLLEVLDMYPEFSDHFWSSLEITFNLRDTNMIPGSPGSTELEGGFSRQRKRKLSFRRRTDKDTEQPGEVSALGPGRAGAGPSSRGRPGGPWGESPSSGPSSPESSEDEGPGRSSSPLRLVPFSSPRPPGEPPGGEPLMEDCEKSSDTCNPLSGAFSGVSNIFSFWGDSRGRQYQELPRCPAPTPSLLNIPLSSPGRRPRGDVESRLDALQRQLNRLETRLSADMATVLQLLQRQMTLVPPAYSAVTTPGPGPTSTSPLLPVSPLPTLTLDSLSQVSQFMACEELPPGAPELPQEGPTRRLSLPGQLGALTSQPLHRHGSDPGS
assay-info: Inhibition of human ERG at 10 uM relative to control
Give inhibition at 10 µM for every item shown.
Record the result as a number with its unit.

// batch mode: one inhibition at 10 µM value per listed entry
1. Cc1c(C(=O)Nc2ccc3ccccc3n2)sc2c(-c3ccncc3)cccc12
2. CC(=O)c1cccc2c(C)c(C(=O)Nc3ccc4ccccc4n3)sc12

["36%", "10%"]

---

subject-of-test: CYP3A4 (Homo sapiens, UniProt P08684)
Sequence (P08684 whole entry): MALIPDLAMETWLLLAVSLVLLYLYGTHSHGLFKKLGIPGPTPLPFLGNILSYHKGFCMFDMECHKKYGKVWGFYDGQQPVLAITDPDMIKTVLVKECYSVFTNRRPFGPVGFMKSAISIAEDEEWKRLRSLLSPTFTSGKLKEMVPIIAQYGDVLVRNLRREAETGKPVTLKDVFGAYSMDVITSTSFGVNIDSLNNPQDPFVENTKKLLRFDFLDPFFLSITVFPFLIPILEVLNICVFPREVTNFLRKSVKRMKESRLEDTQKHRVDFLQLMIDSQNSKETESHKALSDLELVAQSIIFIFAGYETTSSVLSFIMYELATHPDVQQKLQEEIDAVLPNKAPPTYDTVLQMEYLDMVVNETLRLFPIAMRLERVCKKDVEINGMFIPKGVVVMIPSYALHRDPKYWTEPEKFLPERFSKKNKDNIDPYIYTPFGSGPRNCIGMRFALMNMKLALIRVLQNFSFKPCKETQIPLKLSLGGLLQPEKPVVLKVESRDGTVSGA
assay-info: Inhibition of CYP3A4 (unknown origin) at 10 uM relative to control
Assay type: ADME
value-kind: inhibition at 10 µM (%)
One number for each entry, in %.

>  <smiles-string>
CC(=O)c1cccc2c(C)c(C(=O)Nc3ccc4ccccc4n3)sc12

>  <measurement-units>
%

>  <inhibition at 10 µM>
0

$$$$

Here is the next item to consider.
Need inhibition at 10 µM of "Cc1c(C(=O)Nc2ccc3ccccc3n2)sc2c(-c3ccncc3)cccc12" , thanks.
1

---

So I've got a bunch of compounds here, and I need their IC50 values.
subject-of-test: UniProt:Q9Y233
Sequence (Q9Y233 whole entry): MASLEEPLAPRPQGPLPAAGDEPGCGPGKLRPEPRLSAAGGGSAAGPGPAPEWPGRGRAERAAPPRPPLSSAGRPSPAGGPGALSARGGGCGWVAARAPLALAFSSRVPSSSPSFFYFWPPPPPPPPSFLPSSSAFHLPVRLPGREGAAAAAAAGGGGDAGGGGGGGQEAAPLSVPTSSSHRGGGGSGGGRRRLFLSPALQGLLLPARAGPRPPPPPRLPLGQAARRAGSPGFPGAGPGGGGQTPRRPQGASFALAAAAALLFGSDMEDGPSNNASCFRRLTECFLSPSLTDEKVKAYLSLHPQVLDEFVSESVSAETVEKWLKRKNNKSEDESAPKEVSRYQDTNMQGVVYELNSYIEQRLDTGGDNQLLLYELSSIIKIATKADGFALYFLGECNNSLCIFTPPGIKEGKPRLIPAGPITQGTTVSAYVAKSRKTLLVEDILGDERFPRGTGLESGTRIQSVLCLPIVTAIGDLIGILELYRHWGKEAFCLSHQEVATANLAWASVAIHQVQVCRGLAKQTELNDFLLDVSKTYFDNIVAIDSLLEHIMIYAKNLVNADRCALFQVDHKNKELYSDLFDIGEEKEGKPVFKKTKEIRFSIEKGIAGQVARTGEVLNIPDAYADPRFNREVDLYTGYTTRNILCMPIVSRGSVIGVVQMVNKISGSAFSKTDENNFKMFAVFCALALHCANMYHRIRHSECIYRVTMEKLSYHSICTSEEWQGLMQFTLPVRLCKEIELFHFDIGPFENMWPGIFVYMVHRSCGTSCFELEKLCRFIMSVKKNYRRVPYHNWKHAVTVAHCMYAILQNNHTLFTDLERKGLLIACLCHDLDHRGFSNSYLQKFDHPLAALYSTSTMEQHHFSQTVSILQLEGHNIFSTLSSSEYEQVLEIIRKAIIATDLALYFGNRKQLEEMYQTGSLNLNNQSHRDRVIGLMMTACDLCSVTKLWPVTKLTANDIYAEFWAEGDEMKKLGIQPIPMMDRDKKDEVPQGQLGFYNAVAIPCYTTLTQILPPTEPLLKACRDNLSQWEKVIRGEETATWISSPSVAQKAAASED
assay-info: Inhibition of human MOLT4 cell-derived PDE10A using [3H]cAMP as substrate measured after 2 hrs in presence of rolipram/milrinone by topcount method
Give bare numbers, in nM.

Example compounds with recorded IC50:
>  <smiles-string>
CNC(=O)c1cccc2c(C)c(C(=O)Nc3ccc4ccccc4n3)sc12

>  <IC50 [nM]>
23

$$$$
>  <smiles-string>
O=C(Nc1cc2cccccc-2n1)/C(=C/c1ccccc1)c1ccccc1

>  <IC50 [nM]>
510

$$$$
>  <smiles-string>
Cc1c(C(=O)Nc2ccc3ccccc3n2)sc2c(C#N)cccc12

>  <IC50 [nM]>
110

$$$$
>  <smiles-string>
Cc1c(C(=O)Nc2ccc3ccccc3n2)sc2c(C(=O)N(C)C)cccc12

>  <IC50 [nM]>
44

$$$$
>  <smiles-string>
CC(=O)c1ccc(C(C)=O)c2sc(C(=O)Nc3cc(C(C)(C)O)c4ccccc4n3)cc12

>  <IC50 [nM]>
13

$$$$
>  <smiles-string>
O=C(Nc1ccc2ccccc2n1)c1cc2cccc(-c3ccncc3)c2s1

>  <IC50 [nM]>
47

$$$$

Please look at the items below and tell me IC50 for each one, in order.
1. Cc1c(C(=O)Nc2ccc3ccccc3n2)sc2c(-c3ccncc3)cccc12
2. Cc1c(C(=O)Nc2ccc3ccccc3n2)sc2c(-c3cccnc3)cccc12
3. Cc1c(C(=O)Nc2ccc3ccccc3n2)sc2c(C(N)=O)cccc12
4. CC(=O)c1cccc2c(C)c(C(=O)Nc3ccc4ccccc4n3)sc12
5. O=C(Nc1ccc2ccccc2n1)/C(=C/c1ccccc1)c1ccccc1
6. Cc1c(C(=O)Nc2ccc3ccccc3n2)sc2c(-c3ccoc3)cccc12
7. Cc1c(C(=O)Nc2ccc3ccccc3n2)sc2c(-c3ccccn3)cccc12
8. Cc1c(C(=O)Nc2ccc3ccccc3n2)sc2c(I)cccc12

1: 4.7; 2: 120; 3: 23; 4: 7.6; 5: 440; 6: 320; 7: 62; 8: 200

Return reported IC50; argument: "CCc1c(C(=O)Nc2ccc3ccccc3n2)sc2c(-c3ccncc3)cccc12"
5.2
